targetOrSystem: OR2/OR7 (Anopheles gambiae, UniProt Q7QCC7+Q8WTE6)
Construct: Full-length cDNAs for mosquito (Anopheles gambiae) odorant receptor (OR1, OR2, OR7, OR8, OR28); expressed in transfected cells
Sequence (Q8WTE6 whole entry, one chain of several): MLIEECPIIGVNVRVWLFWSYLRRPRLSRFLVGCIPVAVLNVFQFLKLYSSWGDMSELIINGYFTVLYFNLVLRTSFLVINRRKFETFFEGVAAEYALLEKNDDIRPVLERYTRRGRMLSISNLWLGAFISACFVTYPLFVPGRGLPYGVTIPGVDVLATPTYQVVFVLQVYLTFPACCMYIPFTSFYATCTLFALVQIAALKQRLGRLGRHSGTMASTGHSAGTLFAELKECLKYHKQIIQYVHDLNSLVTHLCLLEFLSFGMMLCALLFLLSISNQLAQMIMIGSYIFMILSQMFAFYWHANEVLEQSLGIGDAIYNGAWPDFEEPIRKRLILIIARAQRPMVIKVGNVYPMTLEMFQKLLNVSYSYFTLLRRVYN
methodDescription: Ca2+-imaging of stable HEK293T cell line OR2/OR7
Format: cell-based
conditionLabel: ligand 2-methyl phenol 30 μM; read-out: IC50 OR2 OR7
Each entry below lists one item and its recorded IC50 value.

Tested system OR2/OR7 (Anopheles gambiae, UniProt Q7QCC7+Q8WTE6); IC50 recorded for Cc1nc(NC(C)C)nc(NC(C)C)n1 was > 20 µM

Tested system OR2/OR7 (Anopheles gambiae, UniProt Q7QCC7+Q8WTE6); IC50 recorded for CN(Cc1nccn1Cc1c(F)cccc1Cl)C(=O)C1CCCC1 was < 2 µM

Tested system OR2/OR7 (Anopheles gambiae, UniProt Q7QCC7+Q8WTE6); IC50 recorded for O=C(c1nccn1Cc1c(F)cccc1Cl)N(CC1CCCC1)C1CC1 was 2 to 20 µM

Tested system OR2/OR7 (Anopheles gambiae, UniProt Q7QCC7+Q8WTE6); IC50 recorded for Fc1cccc(Cl)c1Cn1ccnc1CN(CC1CCCC1)C1CC1 was 2 to 20 µM

Tested system OR2/OR7 (Anopheles gambiae, UniProt Q7QCC7+Q8WTE6); IC50 recorded for CC(C)Nc1nc(Cl)nc(NCc2ccccc2)n1 was > 20 µM

---

Each entry below lists one item and its recorded inhibition at 4 µM value.
targetOrSystem: mOREG (Mus musculus, UniProt Q920P2)
Sequence (Q920P2 1-313): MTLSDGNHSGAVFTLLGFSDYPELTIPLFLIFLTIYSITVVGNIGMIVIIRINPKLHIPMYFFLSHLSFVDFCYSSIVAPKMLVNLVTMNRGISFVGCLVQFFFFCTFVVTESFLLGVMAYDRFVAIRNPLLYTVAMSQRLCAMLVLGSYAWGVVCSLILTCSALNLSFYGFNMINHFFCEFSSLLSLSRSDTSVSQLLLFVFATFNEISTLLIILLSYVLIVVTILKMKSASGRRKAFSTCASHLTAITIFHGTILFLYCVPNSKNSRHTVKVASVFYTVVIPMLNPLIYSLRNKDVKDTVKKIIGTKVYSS
methodDescription: Ca2+-imaging, control receptor mOREG
Assay type: cell-based
conditionLabel: compound applied at 4 μM; read-out: Percent Inhibition mOREG

# annotated cases, reported inhibition at 4 µM shown
>>> observedresult("COc1ccc(N2CCN(C(=O)C3CC=CCC3C(=O)NC(c3ccccc3)c3ccccn3)CC2)cc1 (centres unmarked) [RU-0026507]")
"< 25%"
>>> observedresult("COc1nc(NC(C)C)nc(NC(C)C)n1 [RU-0001534]")
"< 25%"
>>> observedresult("COCCN(Cc1cc(Cl)ccc1OS(=O)(=O)c1ccc(F)cc1)C(=O)C1CCC1 [RU-0035287]")
"26 to 50%"
>>> observedresult("COCCCN(CC(=O)N1CCc2sccc2C1c1ccc(OC)cc1)C(=O)C(C)(C)CCl (centres unmarked) [RU-0069950]")
"51 to 74%"
>>> observedresult("C=CCN(Cc1nccn1Cc1ccccc1C)C(=O)CC(C)C [RU-0058298]")
"26 to 50%"
>>> observedresult("O=C(Cc1cccc(F)c1)N1CCOC(COCc2c(Cl)cccc2Cl)C1 (centres unmarked) [RU-0050398]")
"< 25%"

Please fill in: inhibition at 4 µM reported for CC(C)N(Cc1nccn1Cc1c(F)cccc1Cl)C(=O)c1ccc(Cl)cc1 [RU-0055364] = 26 to 50%

Please fill in: inhibition at 4 µM reported for O=C(c1ccco1)N(Cc1nccn1Cc1c(F)cccc1Cl)C1CC1 [RU-0048046] = < 25%

---

targetOrSystem: OR28/OR7 (Anopheles gambiae, UniProt A0A1S4GFY3+Q7QCC7)
Sequence (A0A1S4GFY3 entry or part of it): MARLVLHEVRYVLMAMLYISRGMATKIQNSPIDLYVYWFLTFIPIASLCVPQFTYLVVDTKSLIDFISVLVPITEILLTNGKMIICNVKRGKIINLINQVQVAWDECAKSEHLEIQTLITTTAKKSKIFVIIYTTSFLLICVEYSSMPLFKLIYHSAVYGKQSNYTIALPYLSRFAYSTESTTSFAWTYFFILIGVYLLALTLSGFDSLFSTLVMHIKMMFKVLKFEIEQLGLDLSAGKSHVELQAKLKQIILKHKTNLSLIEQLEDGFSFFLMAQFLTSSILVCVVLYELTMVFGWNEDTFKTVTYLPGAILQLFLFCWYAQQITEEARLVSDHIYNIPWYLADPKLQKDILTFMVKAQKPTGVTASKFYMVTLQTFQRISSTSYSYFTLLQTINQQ
Sequence (Q7QCC7 whole entry): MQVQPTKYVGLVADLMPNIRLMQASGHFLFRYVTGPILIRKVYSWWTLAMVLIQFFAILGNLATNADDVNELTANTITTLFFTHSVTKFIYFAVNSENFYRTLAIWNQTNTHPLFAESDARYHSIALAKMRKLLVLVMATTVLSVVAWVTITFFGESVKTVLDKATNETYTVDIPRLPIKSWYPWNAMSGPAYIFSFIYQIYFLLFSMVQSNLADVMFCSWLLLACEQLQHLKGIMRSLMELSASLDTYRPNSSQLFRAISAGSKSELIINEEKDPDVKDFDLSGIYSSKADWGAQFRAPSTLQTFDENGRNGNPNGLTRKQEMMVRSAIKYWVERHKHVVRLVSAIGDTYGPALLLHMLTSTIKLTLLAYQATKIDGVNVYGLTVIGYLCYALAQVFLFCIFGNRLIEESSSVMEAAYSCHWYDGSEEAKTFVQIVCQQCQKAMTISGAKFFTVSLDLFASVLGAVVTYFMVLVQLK
methodDescription: Ca2+-imaging of stable HEK293T cell line OR28/OR7
Assay type: cell-based
conditionLabel: Table B; read-out: IC50 OR28
Excerpt: Full-length cDNAs for mosquito (Anopheles gambiae) odorant receptor (OR1, OR2, OR7, OR8, OR28), and fly (Drosophila melanogaster) odorant receptor (Or47a, Or83b), mouse TRP channel (TRPM8), and mouse serotonin receptor (5HT3) were obtained and subcloned into mammalian expression vectors. […] Compounds ([…] in DMSO) were stored in 384-well plates, and last two columns (32 wells total) contained only DMSO. […] Ca^2+ increase was monitored with fluorescence at 525 nm by excitation at 485 nm.
pIC50: −log10 of the molar value.
Each entry below lists one item and its recorded pIC50 value.

>>> observedresult("O=C(Cc1cccc(F)c1)N1CCOC(COCc2c(Cl)cccc2Cl)C1 (stereo not drawn) [RU-0050398]")
"6.00 to 7.00"
>>> observedresult("COCCCN(CC(=O)N1CCc2sccc2C1COc1cccc(OC)c1)C(=O)Cc1ccccc1 (stereo not drawn) [RU-0036264]")
"6.00 to 7.00"
>>> observedresult("COCCCN(CC(=O)N1CCc2sccc2C1c1ccc(OC)cc1)C(=O)C(C)(C)CCl (stereo not drawn) [RU-0069950]")
"> 7.00"
>>> observedresult("COc1ccc(N2CCN(C(=O)C3CC=CCC3C(=O)NCCCCc3ccccc3)CC2)cc1 (stereo not drawn) [RU-0026167]")
"> 7.00"
>>> observedresult("CCOC(=O)C1CCCN(C(=O)c2csc(CSc3nnc(-c4cccc(OC)c4)n3-c3ccc(C)cc3)n2)C1 (stereo not drawn) [RU-0071628]")
"> 7.00"
>>> observedresult("COc1ccccc1N1CCN(C(=O)c2cc3n(n2)CCN(Cc2c(F)cccc2Cl)C3=O)CC1 [RU-0043595]")
"> 7.00"
>>> observedresult("CCOc1ccccc1C(=O)NNC(=O)COc1cc(C)cc(C)c1 [RU-0023245]")
"< 6.00"
>>> observedresult("COc1ccc(C(=O)c2ccccc2)c(O)c1O [RU-0001617]")
"< 6.00"
>>> observedresult("CCn1c(C)c(C(=O)CN(CC2CCCO2)C(=O)C2C[C@H]2c2ccccc2)c(C)c1C(=O)OC (stereo partly drawn) [RU-0071273]")
"> 7.00"
>>> observedresult("COc1ccccc1CC(=O)N1CCOC(COc2ccc(C)cc2)C1 (stereo not drawn) [RU-0050390]")
"> 7.00"

Please fill in: pIC50 reported for COCCNC(=O)c1ccc(CSc2nnc(-c3ccc(C)cc3)n2-c2ccccc2F)cc1 [RU-0051652] = < 6.00

Please fill in: pIC50 reported for COc1ccc(N2CCN(C(=O)C3CC=CCC3C(=O)NC(c3ccccc3)c3ccccn3)CC2)cc1 (stereo not drawn) [RU-0026507] = < 6.00

Please fill in: pIC50 reported for COCCCN(Cc1c(-c2ccccc2)noc1N1CCCC1)C(=O)c1ccc(F)cc1 [RU-0037386] = > 7.00

Please fill in: pIC50 reported for O=C(C1CCC1)N(Cc1ccco1)Cc1nccn1Cc1ccccc1Cl [RU-0048066] = > 7.00

Please fill in: pIC50 reported for CCCCc1nc(CN2CCc3c([nH]c4ccccc34)C2c2cccc(OC)c2OC)c[nH]1 (stereo not drawn) [RU-0031879] = > 7.00

Please fill in: pIC50 reported for Cc1ccc(CN(Cc2ccc(F)cc2)C(=O)CN(C(=O)NC(C)(C)C)C2CC2)s1 [RU-0052360] = 6.00 to 7.00

Please fill in: pIC50 reported for c1ccc(CNc2nc(NCc3ccco3)nc(N3CCOCC3)n2)cc1 [RU-0020050] = 6.00 to 7.00

Please fill in: pIC50 reported for O=C(c1ccco1)N(Cc1nccn1Cc1c(F)cccc1Cl)C1CC1 [RU-0048046] = > 7.00

Please fill in: pIC50 reported for Cc1c(C(=O)NCc2ccco2)cnn1-c1ccccc1 [RU-0047765] = > 7.00

Please fill in: pIC50 reported for Cc1ccccc1C(=O)N[C@@H]1CCCCC1NC(=O)C1CCCN(S(=O)(=O)c2cc(Cl)ccc2Cl)C1 (stereo partly drawn) [RU-0045691] = > 7.00

Please fill in: pIC50 reported for CCN(CC)c1onc(-c2ccccc2)c1CN(CC1CCCO1)C(=O)c1ccc2c(c1)OCO2 (stereo not drawn) [RU-0036875] = > 7.00

Please fill in: pIC50 reported for COc1nc(OCC#N)nc(N2CCCCC2)n1 [RU-0006256] = > 7.00

Please fill in: pIC50 reported for Fc1ccccc1/C=N/Nc1nc(N2CCCCC2)nc(N2CCOCC2)n1 [RU-0018338] = > 7.00

Please fill in: pIC50 reported for O=C1CN(S(=O)(=O)c2c(F)cc(F)cc2F)CC2c3cccc(F)c3CCN12 (stereo not drawn) [RU-0076832] = > 7.00

---

targetOrSystem: TRP channel (TRPM8) (Mus musculus)
Construct: Full-length cDNAs for mosquito (Anopheles gambiae) odorant receptor (OR1, OR2, OR7, OR8, OR28), and fly (Drosophila melanogaster) odorant receptor (Or47a, Or83b), mouse TRP channel (TRPM8); expressed in transfected cells
Sequence (Q8R4D5 whole entry): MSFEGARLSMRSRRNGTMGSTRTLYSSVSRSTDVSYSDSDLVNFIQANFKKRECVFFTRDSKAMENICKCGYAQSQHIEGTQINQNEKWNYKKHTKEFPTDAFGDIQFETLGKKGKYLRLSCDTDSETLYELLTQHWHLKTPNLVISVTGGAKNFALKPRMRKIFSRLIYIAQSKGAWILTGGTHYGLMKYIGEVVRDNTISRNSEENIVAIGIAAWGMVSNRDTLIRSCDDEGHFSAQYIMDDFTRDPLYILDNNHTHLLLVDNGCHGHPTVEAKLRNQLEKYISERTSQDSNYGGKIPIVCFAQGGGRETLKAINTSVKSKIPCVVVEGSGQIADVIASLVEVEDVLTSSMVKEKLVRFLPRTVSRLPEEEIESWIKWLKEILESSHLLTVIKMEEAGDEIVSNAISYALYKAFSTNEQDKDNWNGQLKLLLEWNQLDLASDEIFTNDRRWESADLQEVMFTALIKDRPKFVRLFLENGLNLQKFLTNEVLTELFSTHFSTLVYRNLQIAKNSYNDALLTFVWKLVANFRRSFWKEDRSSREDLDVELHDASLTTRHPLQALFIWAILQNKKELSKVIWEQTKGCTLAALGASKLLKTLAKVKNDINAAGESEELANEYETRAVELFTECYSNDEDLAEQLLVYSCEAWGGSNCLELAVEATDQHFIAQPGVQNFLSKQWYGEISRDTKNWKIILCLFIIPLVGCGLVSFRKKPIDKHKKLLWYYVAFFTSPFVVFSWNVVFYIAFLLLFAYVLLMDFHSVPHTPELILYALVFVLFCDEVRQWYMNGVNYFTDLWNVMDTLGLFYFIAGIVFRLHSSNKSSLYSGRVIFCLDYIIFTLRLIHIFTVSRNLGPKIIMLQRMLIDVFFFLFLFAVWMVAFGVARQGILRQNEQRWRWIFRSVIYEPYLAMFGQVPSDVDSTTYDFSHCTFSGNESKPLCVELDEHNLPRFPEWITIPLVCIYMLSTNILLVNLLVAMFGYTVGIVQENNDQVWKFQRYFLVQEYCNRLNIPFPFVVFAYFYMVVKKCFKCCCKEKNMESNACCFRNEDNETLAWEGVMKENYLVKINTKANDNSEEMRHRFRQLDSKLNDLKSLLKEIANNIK
methodDescription: Ca2+-imaging of stable HEK293T cell line TRPM8
Assay type: cell-based
conditionLabel: HEK-293T; compound applied at 4 μM; read-out: Percent Inhibition TRPM8
quantityName: inhibition at 4 µM

# annotated cases, reported inhibition at 4 µM shown
>>> observedresult("COCCN(Cc1cc(Cl)ccc1OS(=O)(=O)c1ccc(F)cc1)C(=O)C1CCC1")
"< 25%"
>>> observedresult("C=CCNC(=O)C(NC(=O)c1cccc(C)c1)C1CCN(C(=O)c2cccc(Br)c2)CC1 (centres unmarked)")
"< 25%"
>>> observedresult("Cc1ccccc1C(=O)N[C@@H]1CCCCC1NC(=O)C1CCN(C(=O)c2cc(C(F)(F)F)cc(C(F)(F)F)c2)CC1 (some centres unmarked)")
"< 25%"
>>> observedresult("COc1ccc(-n2c(Cc3ccccc3)nnc2SCCCC(=O)N2CCN(C(=O)c3ccc(C(F)(F)F)cc3)C(C)C2)cc1 (centres unmarked)")
"< 25%"
>>> observedresult("COCCCN(CC(=O)N1CCc2sccc2C1COc1cccc(OC)c1)C(=O)Cc1ccccc1 (centres unmarked)")
"26 to 50%"

Please fill in: inhibition at 4 µM reported for Cc1ccccc1C(=O)N[C@@H]1CCCCC1NC(=O)C1CCCN(S(=O)(=O)c2cc(Cl)ccc2Cl)C1 (some centres unmarked) = < 25%

Please fill in: inhibition at 4 µM reported for COc1ccc(N2CCN(C(=O)C3CC=CCC3C(=O)NCCCCc3ccccc3)CC2)cc1 (centres unmarked) = 26 to 50%

Please fill in: inhibition at 4 µM reported for C=CCN(Cc1nccn1Cc1ccc(Cl)c(Cl)c1)C(=O)c1ccccc1F = < 25%
